Test system: maximal electroshock (MES) induced seizure
Assay: maximal electroshock (MES) seizure test, rats (po)
Assay type: in vivo
Details: rat, po
Protocol: Compounds were screened for anticonvulsant activity in both male albino Carthworth Farms No. 1 mice (ip route) and male albino Sprague Dawley rats [oral (po) route]. Activity was established using the electrical (maximal electroshock or MES) test. […] In mice, effects of compounds on forced spontaneous motor activity were determined using the rotorod test. […] The quantitative determination of the median effective (ED50) and toxic doses (TD50) was conducted at previously calculated times of peak effect. […]
measured property: PI protective index (TD50/MES ED50)

Task item: Let me know recorded PI protective index (TD50/MES ED50) for COC[C@@H](NC(C)=O)C(=O)NCc1cccc(F)c1 , thanks.
Reply: >57.7

Task item: Provide measured PI protective index (TD50/MES ED50) value, entry: CC(=O)NC(C)C(=O)NCc1ccccc1 (racemic) [compound 1, N-Acetyl-D,L-alanine-N′-benzylamide]
Reply: >20.8

Task item: Return PI protective index (TD50/MES ED50) (reported value) for this compound: CC(=O)NC(C(=O)NCc1ccccc1)c1ccccc1 (racemic) [compound 13, N-Acetyl-D,L-phenylglycine-N-benzylamide]
Reply: >20.7

Task item: Could you please provide reported PI protective index (TD50/MES ED50) for CC(=O)N[C@H](C)C(=O)NCc1ccccc1 [compound 2, N-Acetyl-D-alanine-N′-benzylamide] ? Thanks!
Reply: >35.2

---

assay: motor impairment (ataxia, gait, stance) observation, rats (po); format: in vivo; settings: male, Sprague Dawley, in vivo; rat, po, at time of peak effect; read-out: tox, TD50
Provide the reported TD50 of each item.

Task item: Find the measured TD50 of CC(=O)NC(C(=O)NCc1ccccc1)c1ccccc1 (racemic) [compound 13, N-Acetyl-D,L-phenylglycine-N-benzylamide] and report it.
Reply: > 1000 mg/kg

Task item: Tell me measured TD50 for COC[C@@H](NC(C)=O)C(=O)NCc1ccc(F)cc1 please.
Reply: 125 to 250 mg/kg

Task item: Return TD50 for the following molecule: COC[C@H](NC(C)=O)C(=O)NCc1ccccc1
Reply: > 30 mg/kg

Task item: Please supply the value of reported TD50 for the item CC(=O)NC(C)C(=O)NCc1ccccc1 (racemic) [compound 1, N-Acetyl-D,L-alanine-N′-benzylamide]
Reply: > 1000 mg/kg

---

tested on: maximal electroshock (MES) induced seizure; assay: maximal electroshock (MES) seizure test, mice (ip); type: in vivo; settings: mice, ip
measured property: PI protective index (TD50/MES ED50)
Form rule: numeric answer, no unit written next to it.

Task item: Give PI protective index (TD50/MES ED50) for the following compound: CC(=O)NC(C)C(=O)NCc1ccccc1 (racemic) [compound 1, N-Acetyl-D,L-alanine-N′-benzylamide]
Reply: 5.9

Task item: Please list PI protective index (TD50/MES ED50) recorded for the compound CC(=O)N[C@H](C)C(=O)NCc1ccccc1 [compound 2, N-Acetyl-D-alanine-N′-benzylamide]
Reply: 3.9

Task item: Recall and state the measured PI protective index (TD50/MES ED50) for CC(=O)N[C@@H](C)C(=O)NCc1ccccc1 [compound 3, N-Acetyl-L-alanine-N′-benzylamide] .
Reply: 1.5

---

system: maximal electroshock (MES) induced seizure; assay: maximal electroshock (MES) seizure test, mice (ip); type: in vivo; settings: Mus musculus, ip, read-out: MES, ED50
measured property: ED50 (mg/kg)
The answer is to be given in mg/kg; state only the numeric part.

Task item: # return recorded ED50 for entry CC(=O)NC(C)C(=O)NCc1ccccc1 (racemic) [compound 1, N-Acetyl-D,L-alanine-N′-benzylamide]
Reply: 76.5

Task item: Return ED50 for the following compound: CC(=O)NC(C(=O)NCc1ccccc1)c1ccccc1 (racemic) [compound 13, N-Acetyl-D,L-phenylglycine-N-benzylamide]
Reply: 20.3

Task item: Identify measured ED50 corresponding to COC[C@@H](NC(C)=O)C(=O)NCc1ccc(F)cc1
Reply: 4.2

---

Please respond with reported tox, TD50 for every item in the list.
system: motor impairment (rotorod test); test: rotorod neurologic toxicity test, mice (ip); format: in vivo; settings: mice, ip, rotorod test, at time of peak effect

Task item: Give the value of tox, TD50 reported for the following: CC(=O)N[C@H](C(=O)NCc1ccccc1)c1ccco1
Reply: >200 mg/kg

Task item: Fill in reported tox, TD50 for this entry: CC(=O)N[C@@H](C)C(=O)NCc1ccccc1 [compound 3, N-Acetyl-L-alanine-N′-benzylamide]
Reply: 841 [0.5] mg/kg

Task item: Consider the compound COC[C@@H](NC(C)=O)C(=O)NCc1cccc(F)c1 and give its recorded tox, TD50.
Reply: 46.3 [0.25] mg/kg

Task item: Answer with the recorded tox, TD50 for the compound listed here: CC(=O)N[C@@H](C(=O)NCc1ccccc1)c1ccco1
Reply: 23.8 mg/kg

Task item: Could you please provide reported tox, TD50 for CC(=O)N[C@H](C)C(=O)NCc1ccccc1 [compound 2, N-Acetyl-D-alanine-N′-benzylamide] ? Thanks!
Reply: 2.14 [0.5] mg/kg

Task item: Write down tox, TD50 measured for item CC(=O)N[C@H](CO)C(=O)NCc1ccccc1 [compound 12, (R)-N-Benzyl 2-Acetamidohydracylamide]
Reply: >500 [2] mg/kg

Task item: Please look at this compound and report its tox, TD50: CC(=O)NC(C)C(=O)NCc1ccccc1 (racemic) [compound 1, N-Acetyl-D,L-alanine-N′-benzylamide]
Reply: 454 [0.5] mg/kg

Task item: Name the recorded tox, TD50 of the compound listed here: COC[C@@H](NC(C)=O)C(=O)NCc1ccc(F)cc1
Reply: 27.8 [0.25] mg/kg

---

test system: maximal electroshock (MES) induced seizure; assay: maximal electroshock (MES) seizure test, mice (ip); format: in vivo; conditions: mice, ip
measured property: PI protective index (TD50/MES ED50)

Task item: Write down PI protective index (TD50/MES ED50) measured for item CC(=O)NC(C(=O)NCc1ccccc1)c1ccccc1 (racemic) [compound 13, N-Acetyl-D,L-phenylglycine-N-benzylamide]
Reply: 4.77

Task item: For the molecule COC[C@@H](NC(C)=O)C(=O)NCc1ccc(F)cc1 , report PI protective index (TD50/MES ED50).
Reply: 6.6

Task item: Report PI protective index (TD50/MES ED50) for CC(=O)N[C@H](CO)C(=O)NCc1ccccc1 [compound 12, (R)-N-Benzyl 2-Acetamidohydracylamide]
Reply: >9.4

Task item: Retrieve PI protective index (TD50/MES ED50) measured for COC[C@@H](NC(C)=O)C(=O)NCc1cccc(F)c1 and print it.
Reply: 6.7

---

biological target: p-nitroanisole O-demethylase; experiment: in vitro p-nitroanisole O-demethylase inhibition; details: listed as Compound A, read-out: I50, in vitro p-nitroanisole O-demethylase activity
measured property: pIC50
// pIC50: -log10(molar conc.)

Task item: Fetch value of pIC50 on p-nitroanisole O-demethylase for CC(=O)NC(C)C(=O)NCc1ccccc1 (racemic) [compound 1, N-Acetyl-D,L-alanine-N′-benzylamide] .
Reply: 2.30
